Just for reference, PubChem BioAssay (NCATS) is where these values come from.

tested on: 7G8; experiment: qHTS profiling for inhibitors of Plasmodium falciparum proliferation (AID 504749); also: nearly all actives have a fitted effect of over 60% in size; conditions: P. falciparum in erythrocytes, SYBR Green DNA, 72 h; series mostly up to 28.7 µM
Results filed as inconclusive are left out. Activity calls are given as the source filed them. Calls follow the shape of the dose curve; as a rule, active = well fitted inhibition curve with a large enough effect; inconclusive = small, poorly fitted or top-dose-only effect; inactive = flat fitted curve, though single readings scatter.
Select the correct class. Options are active, inactive and nothing else.

Known results for compounds:
compound=C#C[C@]1(O)CC[C@H]2[C@@H]3CCC4=CC(=O)CCC4=C3C=C[C@@]21CC qualitativelabel=active
compound=C[C@H]1C(=O)O[C@@H]2CCN3CC=C(COC(=O)[C@](C)(O)[C@]1(C)O)[C@H]23 qualitativelabel=inactive
compound="CC(Cc1ccccc1)NCc1ccccc1Cl (stereo not drawn)" qualitativelabel=active
compound=CN1CCc2cc(Cl)c(O)cc2[C@H]2c3ccccc3CC[C@@H]21 qualitativelabel=active
compound=O=C1NCN(c2ccccc2)C12CCN(CCCOc1ccc(F)cc1)CC2 qualitativelabel=active

Outcome? COc1ccc(CN2CCNCC2)c(OC)c1OC inactive

What was the test verdict on N#Cc1nn(-c2c(Cl)cc(C(F)(F)F)cc2Cl)c(N)c1S(=O)C(F)(F)F (stereo not drawn) ? active

Recorded call for Cc1c(Cl)c(=O)oc2cc(OP(=O)(OCCCl)OCCCl)ccc12 ? active

Per the assay record, what outcome was assigned to CCN(CC)CCOC(=O)C(C)(c1ccccc1)c1ccccc1 ? active

What did this assay record as the result for CCN(CC)C(C)C(=O)c1ccccc1 (stereo not drawn) ? inactive

How did this test come out for COP(=O)(OC)C(O)C(Cl)(Cl)Cl (stereo not drawn) ? inactive

Kindly provide the recorded test outcome for the following compound: Cc1ncc2n1-c1ccc(Cl)cc1C(c1ccccc1F)=NC2 inactive

What did the test return for NCc1cccnc1 ? inactive

---

Listed molecules paired with reported max response
experiment: qHTS assay for small molecule antagonists of peroxisome proliferator-activated receptor delta signaling (AID 588535); conditions: HEK293T PPARd-UAS-bla, beta-lactamase FRET ratio, 18 h; 460 nm channel;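 also: cells co-treated with a PPAR-delta agonist as stimulator during compound exposure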
Inconclusive results are not listed.
All answers are understood in %, so give the number only.

Field request: max response | item: COP(=S)(OC)Oc1ccc(Sc2ccc(OP(=S)(OC)OC)cc2)cc1 -0.163

Consider the molecule CCC(=O)O[C@H]1CC[C@H]2[C@@H]3CCC4=CC(=O)CC[C@]4(C)[C@H]3CC[C@]12C and give its measured max response. -14.3

Which max response value belongs to CC[n+]1c(-c2ccccc2)c2cc(N)ccc2c2ccc(N)cc21 ? -102

Suppose we examine the molecule CCCCCCCCC(=O)NCc1ccc(O)c(OC)c1 ; what max response value has been reported? 11.4

---

assay: Primary qHTS to identify inhibitors of SARS-CoV-2 cell entry (AID 1645846); conditions: SARS-CoV-2 pseudovirus cell entry assay, luminescence; at 57.1 µM (top of the series) unless noted; also: nearly all actives have a fitted effect of over 45% in size
Results filed as inconclusive are left out.
// activity change, negative = inhibition lookup, one value per entry
Express it in %; write the number only.

compound=C[C@]12CCC(=O)C=C1CC[C@@H]1[C@@H]2[C@@H](O)C[C@@]2(C)[C@H]1CC[C@]2(O)C(=O)CO numericreadout=4.28
compound=CC(C)(C)C(=O)OCOC(=O)[C@@H]1N2C(=O)[C@@H](NC(=O)[C@H](N)c3ccccc3)[C@H]2SC1(C)C numericreadout=-12.4
compound="CN1CCCN=C1COC(=O)C(O)(c1ccccc1)C1CCCCC1 (configuration not stated)" numericreadout=4.25
compound=C[C@]12CC[C@@H]3c4ccc(O)cc4CC[C@H]3[C@@H]1CC[C@@H]2OC(=O)CCC1CCCC1 numericreadout=-19.7
compound=C#C[C@]1(O)C=C[C@H]2[C@@H]3CCC4=CC(=O)CC[C@@H]4[C@H]3CC[C@@]21CC numericreadout=-10.9
compound=CCC(=O)O[C@]1(C(=O)CCl)[C@@H](C)C[C@H]2[C@@H]3CCC4=CC(=O)C=C[C@]4(C)[C@@]3(F)[C@@H](O)C[C@@]21C numericreadout=-9.65
compound=N=C(N)c1ccc(OCCCOc2ccc(C(=N)N)cc2)cc1 numericreadout=-8.76
compound=CCCc1ncc(C[n+]2ccccc2C)c(N)n1 numericreadout=0.0229

What value of measured activity change, negative = inhibition is listed for CN(C)CCOC(c1ccccc1)c1ccc(Br)cc1 (configuration not stated) ? -67.2

Fill in the blank: the reported activity change, negative = inhibition of C#C[C@]1(O)CC[C@H]2[C@@H]3[C@H](C)CC4=C(CCC(=O)C4)[C@H]3CC[C@@]21C is ____. -14.1

// returns reported activity change, negative = inhibition for input O=C1CN2CCOC2(c2ccccc2Cl)c2cc(Cl)ccc2N1 (configuration not stated) -6.92

---

conditions: Ebola virus entry assay, blue channel fluorescence
Calls of active or inactive are those of the source. The rule behind the calls is not given here.
Outcome (select one): active, inactive

Worked set:
compound=C=CC[N+]1([C@H]2C[C@H]3[C@@H]4CC[C@H]5C[C@H](OC(C)=O)[C@@H](N6CCCCC6)C[C@]5(C)[C@H]4CC[C@]3(C)[C@H]2OC(=O)CC)CCCCC1 qualitativelabel=active
compound=CCn1c(=O)c2c(nc(C=Cc3ccc(OC)c(OC)c3)n2C)n(CC)c1=O qualitativelabel=inactive
compound="CC(C(O)c1ccccc1)N(C)C/C=C/c1ccccc1 (configuration not stated)" qualitativelabel=active
compound=C[C@H](N)[C@H](O)c1cccc(O)c1 qualitativelabel=inactive
compound=O=c1[nH]c(=O)c2ccccc2o1 qualitativelabel=inactive

# fetch the recorded call for CN1CCN(C2=Nc3cc(F)ccc3Cc3ccccc32)CC1 here active

Call for entry C=CCc1cc(OC)c(O)c(C(=O)NCCO)c1 : active

# fetch the recorded call for COc1ccc(CN(CCN(C)C)c2ccccn2)cc1 here active

Record request — test call for C[C@H](N)[C@H](O)c1ccc(O)c(O)c1 active

Which result was noted for this compound in the test: Oc1c(Cl)cc(Cl)c2cccnc12 active

Hi team, can someone confirm the assay call for NCCNC(=O)c1ccc(Cl)cn1 ? inactive

---

conditions: Ebola virus entry assay, green fluorescence channel
Measured potencies and affinities stand elsewhere.
measuredProperty: efficacy (%)
Express the result in % but write the number alone.

compound=NC(=O)C1(N2CCCCC2)CCN(CCCN2c3ccccc3CCc3ccc(Cl)cc32)CC1 readoutunit=% numericreadout=-222
compound=Oc1ccc(Cl)cc1Sc1cc(Cl)ccc1O readoutunit=% numericreadout=-28.7
compound="NS(=O)(=O)c1cc2c(cc1Cl)NC(C1CC3C=CC1C3)NS2(=O)=O (centres undefined)" readoutunit=% numericreadout=-30.9

Kindly review the next compound as well.
Query: efficacy; subject: N[C@@H](Cc1cc(I)c(O)c(I)c1)C(=O)O 29.5

---

tested on: N140; assay: qHTS profiling for inhibitors of Plasmodium falciparum proliferation (AID 504749); also: nearly all actives have a fitted effect of over 60% in size; conditions: P. falciparum in erythrocytes, SYBR Green DNA, 72 h; series mostly up to 28.7 µM
Results filed as inconclusive are left out. Activity calls are given as the source filed them. Calls come from the whole dose curve; as a rule, active = well fitted inhibition curve with a large enough effect; inconclusive = small, poorly fitted or top-dose-only effect; inactive = flat fitted curve, though single readings scatter.
Return exactly one item of Yes (active), No (inactive)

Reference set, count: 3
compound=CC(C)(O)C(Cl)(Cl)Cl qualitativelabel=Yes
compound=Cc1c(Cl)c(=O)oc2cc(OP(=O)(OCCCl)OCCCl)ccc12 qualitativelabel=Yes
compound=c1ccc2nc(N3CCNCC3)ccc2c1 qualitativelabel=No

Hello, I am checking results. What call was entered for NC(=O)CN1CCCC1=O ? No

# fetch the recorded call for CCN(Cc1ccc(Cl)nc1)/C(=C/[N+](=O)[O-])NC here No

Recorded test call requested for CCCCCCCCC(=O)NCc1ccc(O)c(OC)c1 No

# lookup: test call for OC(O)C(Cl)(Cl)Cl No

---

conditions: Ebola virus entry assay, reporter ratio channel; Channel type: primary
The source made the active and inactive calls. How the calls were made is not given here.
measuredProperty: AC50

molecule=CN(C)C(=S)SC(=S)N(C)C result="5.01 µM (active)"
molecule=OC(CCN1CCCCC1)(c1ccccc1)c1ccccc1 result="28.2 µM (active)"
molecule="CC(C)(C)C(=O)OCOC(=O)C1N2C(=O)CC2S(=O)(=O)C1(C)C (stereo not drawn)" result="3.16 µM (active)"
molecule=C(=C\c1ccccc1)/CN1CCN(C(c2ccccc2)c2ccccc2)CC1 result=inactive
molecule=Nc1ccc(C(=O)NCC(=O)O)cc1 result=inactive

Which AC50 is listed for CCCCNc1ccc(C(=O)OCCN(C)C)cc1 ? 28.2 µM (active)

Please look up its AC50: CC(=O)[C@@]1(O)CC[C@H]2[C@@H]3CCC4=CC(=O)CC[C@]4(C)[C@H]3CC[C@@]21C inactive

So what does the record say about AC50 for COC(=O)C1=C(C)NC(COC(N)=O)=C(C(=O)OC(C)C)C1c1cccc(Cl)c1Cl (stereo not drawn) ? 22.4 µM (active)

---

test system: PAD; experiment: qHTS profiling for inhibitors of Plasmodium falciparum proliferation (AID 504749); also: nearly all actives have a fitted effect of over 60% in size; details: P. falciparum in erythrocytes, SYBR Green DNA, 72 h; series mostly up to 28.7 µM
Inconclusive results are not listed. Calls of active or inactive are those of the source. Calls come from the whole dose curve; as a rule, active = well fitted inhibition curve with a large enough effect; inconclusive = small, poorly fitted or top-dose-only effect; inactive = flat fitted curve, though single readings scatter.
The categories you may choose from are active, inactive

molecule=CN1C(=O)CN=C(c2ccccc2)c2cc([N+](=O)[O-])ccc21 qualitativelabel=inactive
molecule="COP(=O)(OC)C(O)C(Cl)(Cl)Cl (stereo not drawn)" qualitativelabel=inactive
molecule=COC(=O)C1=CCCN(C)C1 qualitativelabel=inactive
molecule=CN1C[C@@H](NS(=O)(=O)N(C)C)C[C@@H]2c3cccc4c3c(cn4C)C[C@H]21 qualitativelabel=inactive
molecule="ClC1=C(Cl)C2(Cl)C(CBr)CC1(Cl)C2(Cl)Cl (stereo not drawn)" qualitativelabel=inactive

Test call for this molecule, please: C[C@]12C=CC(=O)C=C1CC[C@@H]1[C@@H]2CC[C@@]2(C)[C@H]1CC[C@]2(C)O inactive

Called result for CCN(Cc1ccc(Cl)nc1)/C(=C/[N+](=O)[O-])NC inactive

For this molecule, state the assay outcome: NCc1cccnc1 inactive
